target: UniProt:O60341; assay: Inhibition of recombinant LSD1 (unknown origin) expressed in Escherichia coli BL21 using H3K4me2 as substrate preincubated for 10 mins followed by substrate addition and measured after 30 mins by fluorescence based analysis
pIC50: −log10 of the molar value.
Value type: pIC50

| Smiles notation | Measured value |
| --- | --- |
| COc1cc2c(cc1OC)-c1cc3ccc(OC)c(OC)c3c[n+]1CC2 | 4.91 |
| COc1cc2c(cc1O)CC[n+]1cc3c(OC)c(OC)ccc3cc1-2 | 5.81 |
| COc1cc2c(cc1O)-c1cc3ccc(OC)c(OC)c3c[n+]1CC2 | 6.33 |
| COc1ccc2cc3[n+](cc2c1OC)CCc1cc2c(cc1-3)OCO2 | 5.16 |
